- Test system: K4 kissing-loop RNA reporter;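 note: bound reporter read as fluorescence of individual clusters on recovered sequencing chips by microscopy, with normalized cluster intensities fitted with a binding model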
- method-notes: apparent KD of K4 kissing-loop reporter; higher = weaker reporter binding
- conditions: Eterna round: R107; input ligand: FMN 200 uM
Label 1 when apparent KD of K4 kissing-loop reporter is at or above 400 nM; anything below gets -1.

Hi, just wondering whether ACGUCUCGUUAAAUCGUGGUUUCGAUCGAUACCAGUAGCGAGAGUUACCCUUGGCAGCGAAAUGAGUGAUGUUCAUGAAAGAAGA [KL-XTheoA9] shows apparent KD of K4 kissing-loop reporter of 400 nM or higher.
-1

Hi, just wondering whether GGUGCUGUCUGUGCCGCCUUCCUCGUUCCUCGAGGACCGGUACGGCCGCCACUCGAGUGAUGUUUGGGUAGCGAUCCCUGCUAGC [Bdazzled - #15 Exc. Tryptophan A] shows apparent KD of K4 kissing-loop reporter of 400 nM or higher.
1

Hi, just wondering whether UUGGGCAACCGAGAUACCAGUCAAAUCGCUCUGGAGUGAUGUUCCGGAACAUGCGGAGAAGACCCUUGGCAGCUCAAGACGGACA [Exclusion Theophylline B GF 1] shows apparent KD of K4 kissing-loop reporter of 400 nM or higher.
-1

***
Hi, just wondering whether GCGAUUCAGUGAUGUUGGAAAUACAGGGAUACCAGCCGAAAAUAAGGCCCUUGGCAGCUUAAUAGGAAAGAACUAAGAAAGACGC [Theophylline A Same State; Euphoria Solution 3] shows apparent KD of K4 kissing-loop reporter of 400 nM or higher.
1

Hi, just wondering whether GGAUAGGACACAGGAUAUGGUAGUGAUGUUACCAAACUGGUUAAACAUGUCAGAAAACUGGCAUGACCAGAAGGGUGUCCUAUCG [FmnBX 27 C11+G75] shows apparent KD of K4 kissing-loop reporter of 400 nM or higher.
-1

Hi, just wondering whether ACCUUUUUUGCCAGUGAUGUUGGACAGGAAGGAGCGGGCAUAAGCCCAGGUAGGUCGCCUGUCAACUUUCUUAUAGCCCUAAGGU [KL-XArg-A17] shows apparent KD of K4 kissing-loop reporter of 400 nM or higher.
-1

Hi, just wondering whether AACUGUCGAGGACAACAUUACUGAGGUGAUACCAGCAUCGAAAGAUGCCCUUGGCAGCACCAACUUGCAGUGAUGUUGCAAGUAA [BrourdMod 9 - Jieux - Exclusion - Theophylline A] shows apparent KD of K4 kissing-loop reporter of 400 nM or higher.
-1

Hi, just wondering whether ACGCUGGUGAAUAACACUAGCGAAUAAUUCCGAGGACCGGUACGGCCGCCACUCGGCUAACUGCGAGUGAUGUUCGAUAAUAAAA [Mat - Mod of OpenEnded 3 - D10] shows apparent KD of K4 kissing-loop reporter of 400 nM or higher.
-1

Hi, just wondering whether UCGAACGAUGGAAGGAGCGCUCGUCAGCCCUGCGAGUGAUGUUCGUGGGUAAAUAGUCGCGAGCAGGUAGGUCGCCAUCUUGAGC [Zainsotima] shows apparent KD of K4 kissing-loop reporter of 400 nM or higher.
-1

Hi, just wondering whether GUUACGCAUGGAAGGAGCGCUCUCCGGCUUAAUAACACAGUGAUGUUGUGAAUUUGCCGAAAGCAGGUAGGUCGCCAUGUGUAAC [Ex Arginine B K4 10] shows apparent KD of K4 kissing-loop reporter of 400 nM or higher.
1

Hi, just wondering whether GGUCUGCCGCAGUGAUGUUGCUGGCAUACACGAGGACCGGUACGGCCGCCACUCGAUGCUCCAAGAACCACCAAUCUUCGGUAUC [theeternabot_sameState_KL_Trp_A_48] shows apparent KD of K4 kissing-loop reporter of 400 nM or higher.
-1
